experiment: Dissociation of the metal ion complex (kinetic inertness); type: physicochemical; conditions: >12 h, neutral pH
Quantity Kind: resistance to dissociation >12 h, neutral pH

Answered examples (5):
>>> readout_value("[Fe+2].c1ccc2[nH]c(CN3CCN(Cc4nc5ccccc5[nH]4)CCN(Cc4nc5ccccc5[nH]4)CC3)nc2c1")
"moderate"
>>> readout_value("NC(=O)CN1CCN(CC(N)=O)CCN(CC(N)=O)CC1.[Ni+2]")
"good"
>>> readout_value("Cc1nc(CN2CCN(Cc3ccc(N)c(C)n3)CCN(Cc3ccc(N)c(C)n3)CC2)ccc1N.[Fe+2]")
"good"
>>> readout_value("CC(O)CN1CCN(CC(C)O)CCN(CC(C)O)CCN(CC(C)O)CC1.[Fe+2] (centres unmarked)")
"Moderate"
>>> readout_value("CC(O)CN1CCNCCN(CC(C)O)CCNCC1.[Fe+2] (centres unmarked)")
"moderate"

// for each molecule in input: emit resistance to dissociation >12 h, neutral pH
1. NC(=O)CN1CCN(CC(N)=O)CCN(CC(N)=O)CC1.[Fe+2]
2. Nc1cccc(CN2CCN(Cc3cccc(N)n3)CCN(Cc3cccc(N)n3)CC2)n1.[Fe+2]

1: Moderate; 2: good
